Catalogue of pIC50 values
Target: Mitogen-activated protein kinase 14 (Homo sapiens, UniProt Q16539)
Sequence (Q16539 whole entry): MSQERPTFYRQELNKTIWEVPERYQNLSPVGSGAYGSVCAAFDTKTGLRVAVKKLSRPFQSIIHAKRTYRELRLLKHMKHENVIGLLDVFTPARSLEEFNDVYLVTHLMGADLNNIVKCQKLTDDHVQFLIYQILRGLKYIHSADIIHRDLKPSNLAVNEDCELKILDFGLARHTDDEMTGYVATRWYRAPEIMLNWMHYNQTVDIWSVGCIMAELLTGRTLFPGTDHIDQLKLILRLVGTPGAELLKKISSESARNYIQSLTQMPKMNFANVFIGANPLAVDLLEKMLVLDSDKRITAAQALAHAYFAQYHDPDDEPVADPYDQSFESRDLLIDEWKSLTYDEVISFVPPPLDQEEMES
Assay: P38 MAP Kinase Assay
Settings: pH 7.5; 37 °C
Here pIC50 is given on a logarithmic scale as minus log10 of the concentration in mol/L.

Before answering, review these 8 worked examples.
> print(dat)
                               entry.smiles                              assay.target  recorded.measurement
1  Cc1ccc(-c2cc(-c3ccc(Br)cc3)nc(N)c2C#N)o1  Mitogen-activated protein kinase 14 (Homo sapiens, UniProt Q16539)                  7.15
2  N#Cc1c(-c2ccc(Cl)c(Cl)c2)cc(-c2ccc(Br)cc2)[nH]c1=O  Mitogen-activated protein kinase 14 (Homo sapiens, UniProt Q16539)                  6.92
3  N#Cc1c(-c2c[nH]c3ccccc23)cc(-c2ccc(Br)cc2)nc1N  Mitogen-activated protein kinase 14 (Homo sapiens, UniProt Q16539)                  5.58
4  N#Cc1c(-c2ccc(Br)cc2)cc(-c2ccc(Br)cc2)nc1N  Mitogen-activated protein kinase 14 (Homo sapiens, UniProt Q16539)                  6.12
5  N#Cc1c(-c2ccc(Cl)c(Cl)c2)cc(-c2ccc(Br)cc2)nc1N  Mitogen-activated protein kinase 14 (Homo sapiens, UniProt Q16539)                  5.43
6    N#Cc1c(-c2cccnc2)cc(-c2ccc(Br)cc2)nc1N  Mitogen-activated protein kinase 14 (Homo sapiens, UniProt Q16539)                  5.43
7  N#Cc1c(-c2ccc(Br)cc2)cc(-c2ccc(Br)cc2)[nH]c1=O  Mitogen-activated protein kinase 14 (Homo sapiens, UniProt Q16539)                  5.36
8  COc1cc(-c2cc(-c3ccc(Br)cc3)nc(N)c2C#N)cc(OC)c1OC  Mitogen-activated protein kinase 14 (Homo sapiens, UniProt Q16539)                  5.70

-- ask I'd like to know its pIC50. The compound in question is `COc1cc(-c2cc(-c3ccc(Br)cc3)[nH]c(=O)c2C#N)cc(OC)c1OC`
-- reply 5.91
